- ASSAYED SYSTEM: Endonuclease III-like protein 1 (Homo sapiens)
- Sequence (whole entry): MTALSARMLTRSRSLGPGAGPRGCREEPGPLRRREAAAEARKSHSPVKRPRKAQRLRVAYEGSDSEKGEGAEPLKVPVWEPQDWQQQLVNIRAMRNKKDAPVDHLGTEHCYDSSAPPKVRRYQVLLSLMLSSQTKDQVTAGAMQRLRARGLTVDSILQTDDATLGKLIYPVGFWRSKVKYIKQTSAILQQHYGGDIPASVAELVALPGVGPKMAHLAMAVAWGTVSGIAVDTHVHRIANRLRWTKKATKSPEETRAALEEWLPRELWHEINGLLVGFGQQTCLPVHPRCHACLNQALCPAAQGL
- PROTOCOL DETAILS: Inhibition of NTH1 (unknown origin) assessed as effect on DNA lesions per 10^6 DNA bases using 5-OH-5-MeHyd substrate incubated for 1 hr by GC-MS/MS assay
Active and inactive are the calls of the source. The calls are words filed in the database; no cut-off is given here.
METRIC NAME: inhibition

Some entries whose results are on file:
>  <MOLECULE>
O=C(N/N=C/c1ccc(F)cc1)c1sc2ccccc2c1Cl

>  <inhibition>
inactive

$$$$
>  <MOLECULE>
O=C(NN=C1CCCCC1)c1ccc(Br)cc1

>  <inhibition>
inactive

$$$$
>  <MOLECULE>
NNC(=O)c1sc2cccc(Cl)c2c1Cl

>  <inhibition>
inactive

$$$$
>  <MOLECULE>
O=C(NN=C1CCCCC1)c1cc2ccccc2cc1O

>  <inhibition>
inactive

$$$$

// query inhibition value for entry CC1CCCC/C1=N/NC(=O)c1sc2ccccc2c1Cl (stereo not given)
inactive
